test system: Wnt signaling; test: TOPflash reporter assay, HEK 293 STF cells treated with Wnt3a; assay type: cell-based; conditions: Wnt3a-conditioned media, 24 hours, read-out: IC50 of TOPflash (Wnt signaling) inhibition
Measure: IC50

### Prompt Find the measured IC50: item Cc1cc(/C=C/c2ccc3cc(N(C)C)ccc3[n+]2C)c(C)n1-c1ccccc1 [pyrvinium, reference compound] , target or system Wnt signaling.
### Response ~10 nM
